Reference source for all entries: patent US9745321B2

biological target: PI3Kγ (Homo sapiens (Human)); experiment: PI3Kγ enzyme activity inhibition IC50 evaluation assay; type: biochemical; conditions: ratio PI3Kγ vs PI3Kδ
Sequence (P48736 whole entry): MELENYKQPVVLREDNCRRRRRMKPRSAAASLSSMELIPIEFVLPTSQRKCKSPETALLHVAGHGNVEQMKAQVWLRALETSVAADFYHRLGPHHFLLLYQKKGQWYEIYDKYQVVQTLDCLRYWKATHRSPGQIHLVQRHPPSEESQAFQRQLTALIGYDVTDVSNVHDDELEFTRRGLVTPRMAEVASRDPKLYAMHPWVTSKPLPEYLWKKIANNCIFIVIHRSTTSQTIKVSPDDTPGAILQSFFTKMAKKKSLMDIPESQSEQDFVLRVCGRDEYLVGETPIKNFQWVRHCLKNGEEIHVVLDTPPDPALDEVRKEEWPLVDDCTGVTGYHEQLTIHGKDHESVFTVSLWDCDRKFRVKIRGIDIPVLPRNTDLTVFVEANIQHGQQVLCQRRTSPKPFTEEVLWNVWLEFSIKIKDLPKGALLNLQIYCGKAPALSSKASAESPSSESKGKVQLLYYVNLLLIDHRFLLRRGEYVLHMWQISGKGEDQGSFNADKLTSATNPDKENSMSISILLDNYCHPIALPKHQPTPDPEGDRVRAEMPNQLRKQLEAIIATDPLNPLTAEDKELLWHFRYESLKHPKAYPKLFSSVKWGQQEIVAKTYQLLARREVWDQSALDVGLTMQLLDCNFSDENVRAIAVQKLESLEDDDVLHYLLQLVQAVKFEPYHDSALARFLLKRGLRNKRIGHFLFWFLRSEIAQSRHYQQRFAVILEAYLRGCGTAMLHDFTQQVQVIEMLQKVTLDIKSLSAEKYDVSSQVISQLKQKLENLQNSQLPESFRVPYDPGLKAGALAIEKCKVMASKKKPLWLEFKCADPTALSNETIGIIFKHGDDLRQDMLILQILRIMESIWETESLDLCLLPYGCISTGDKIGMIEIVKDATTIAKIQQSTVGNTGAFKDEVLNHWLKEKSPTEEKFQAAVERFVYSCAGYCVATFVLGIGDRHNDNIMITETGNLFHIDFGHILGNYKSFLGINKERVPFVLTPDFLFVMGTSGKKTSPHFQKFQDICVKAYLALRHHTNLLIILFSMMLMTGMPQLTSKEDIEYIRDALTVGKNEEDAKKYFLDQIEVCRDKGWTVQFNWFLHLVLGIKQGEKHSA
measured.attribute: γ/δ selectivity

Example entries and their recorded answers appear below.
CCN(CC)C1CCN(Cc2c(C)sc3c(-c4cnc(OC)c(NS(C)(=O)=O)c4)nc(N4CCOCC4)nc23)CC1 :: 1112
COc1ncc(-c2nc(N3CCOCC3)nc3c(CN4CCC(N5CCC5)CC4)c(C)sc23)cc1NS(C)(=O)=O :: 587
COc1ncc(-c2nc(N3CCOCC3)nc3c(CN4CCN(C(C)(C)C)CC4)c(C)sc23)cc1NS(=O)(=O)C1CC1 :: 1296

(1) COc1ncc(-c2nc(N3CCOCC3)nc3c(CN4CCCC4)c(C)sc23)cc1NS(C)(=O)=O
(2) COc1ncc(-c2nc(N3CCOCC3)nc3c(CN4CCCCC4)c(C)sc23)cc1NS(C)(=O)=O
Given 1 and 2 , report the one with the higher recorded γ/δ selectivity. Reply with the label of the item you choose.
2
(2: 402, 1: 200)
